- Target Under Test: Recombinant KAT6A/MOZ (488-778) protein (Homo sapiens (Human))
- Sequence (Q92794 488-778): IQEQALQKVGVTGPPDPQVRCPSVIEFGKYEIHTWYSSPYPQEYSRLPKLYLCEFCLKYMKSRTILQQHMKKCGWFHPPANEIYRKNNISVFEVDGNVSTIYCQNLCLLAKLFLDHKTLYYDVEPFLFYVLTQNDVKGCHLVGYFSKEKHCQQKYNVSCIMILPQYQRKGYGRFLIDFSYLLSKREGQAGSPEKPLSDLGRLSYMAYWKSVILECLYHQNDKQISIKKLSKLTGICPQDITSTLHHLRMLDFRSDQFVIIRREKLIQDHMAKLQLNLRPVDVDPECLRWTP
- Experiment Notes: KAT6A AlphaLISA Inhibition Screening Assay
- Assay type: biochemical
- Condition Parameters: read-out: Average Kat6A % inhibition @ 10 μM; 10 μM test compound
Measured Property: inhibition at 10 µM (%)

C=C(F)C(=O)NCc1csc(Oc2cc(OC)c3c(NS(=O)(=O)c4cc(CC)ccc4OC)noc3c2)n1 [Syn. Ex. 105]: 99
CCc1ccc(OCC(=N)NO)c(S(=O)(=O)Nc2noc3cc(Cn4cc(CNC(=O)OC)cn4)cc(OC)c23)c1 [Syn. Ex. 115]: 100
CCc1ccc(OC)c(S(=O)(=O)Nc2noc3cc(Cn4cc(CNS(=O)(=O)CCOC)cn4)cc(OC)c23)c1 [Syn. Ex. 18]: 98
CCc1ccc(OCCC#N)c(S(=O)(=O)Nc2noc3cc(Cn4cc(CNC(=O)OC)cn4)cc(OC)c23)c1 [Syn. Ex. 83]: 99
CC#CC(=O)NCc1cnn(Cc2cc(OC)c3c(NS(=O)(=O)c4cc(OC)ccc4OC)noc3c2)c1 [Syn. Ex. 58]: 97
CCc1ccc(OCc2nnco2)c(S(=O)(=O)Nc2noc3cc(Cn4cc(CNC(=O)OC)cn4)cc(OC)c23)c1 [Syn. Ex. 127]: 100
C=C(F)C(=O)NCc1cnn(Cc2cc(OC)c3c(NS(=O)(=O)c4ccccc4OC)noc3c2)c1 [Syn. Ex. 40]: 99
